# Protocol Text: Single-dose oral pharmacokinetics in male BALB/c mice
# Test Context: male, BALB/c, mouse, in vivo, po, 50 mg/kg
# Method: Male BALB/c mice aged 8-9 weeks were used for experimentation after a minimum of 3 days of acclimatization.[38]^,[39]^,[40] […] Concentrations of analyte DRILS-1398 in mice plasma samples were determined using the Shimadzu LCMS-8045 LC-MS/MS system. […]
Parameter Measured: Cmax (ng/mL)
Use ng/mL as the unit, but write only the number.

Request the reported Cmax associated with CCCc1nn(C)c2c(-c3c[nH]c4ccc(Cl)cc34)nc(-c3ccc(Cl)cc3)nc12
1580

----------
# Protocol Text: Single-dose oral pharmacokinetics in male BALB/c mice
# Test Context: male, BALB/c, mouse, in vivo, po, 50 mg/kg
Parameter Measured: AUC(0-inf)

Request the reported AUC(0-inf) associated with CCCc1nn(C)c2c(-c3c[nH]c4ccc(Cl)cc34)nc(-c3ccc(Cl)cc3)nc12 [DRILS-1398]
21400 ng·h/mL

Just for reference, paper PMC12144419 is where these values come from.
